Experiment: Resmetirom exposure parameters by dose, quartile and body weight
Assay type: in vivo, human
Conditions: human, in vivo, oral, 80 mg; 100-<110 kg; read-out: AUCtau,ss Mean

{"Smiles Str": "CC(C)c1cc(Oc2c(Cl)cc(-n3nc(C#N)c(=O)[nH]c3=O)cc2Cl)n[nH]c1=O", "Value Unit": "ng·h/mL", "AUC": 4740}

====

Assay: Resmetirom exposure parameters by dose, quartile and body weight
Format: in vivo, human
Conditions: human, in vivo, oral, 100 mg; 90-<100 kg; read-out: AUCtau,ss Mean
Description: Various body weight cutoffs for dosing were evaluated.

{"Smiles Str": "CC(C)c1cc(Oc2c(Cl)cc(-n3nc(C#N)c(=O)[nH]c3=O)cc2Cl)n[nH]c1=O", "Value Unit": "ng·h/mL", "AUC": 9010}

====

Assay: Resmetirom exposure parameters by dose, quartile and body weight
Assay type: in vivo, human
Details: human, in vivo, oral, 80 mg; 80-<90 kg; read-out: Cmax,ss Geometric Mean
Assay Endpoint: Cmax (µg/mL)

{"Smiles Str": "CC(C)c1cc(Oc2c(Cl)cc(-n3nc(C#N)c(=O)[nH]c3=O)cc2Cl)n[nH]c1=O", "Meas Value": 0.816}

====

Assay: clinical
Conditions: human, in vivo

{"Smiles Str": "CC(C)c1cc(Oc2c(Cl)cc(-n3nc(C#N)c(=O)[nH]c3=O)cc2Cl)n[nH]c1=O", "Value Unit": "min", "half-life": 270}

====

Assay: Resmetirom exposure parameters by dose, quartile and body weight
Assay type: in vivo, human
Settings: human, in vivo, oral, 80 mg; ≥110 kg; read-out: AUCtau,ss Geometric Mean
Assay Endpoint: AUC (ng·h/mL)

{"Smiles Str": "CC(C)c1cc(Oc2c(Cl)cc(-n3nc(C#N)c(=O)[nH]c3=O)cc2Cl)n[nH]c1=O", "Meas Value": 3470}

====

Assay: Resmetirom exposure parameters by dose, quartile and body weight
Type: in vivo, human
Conditions: human, in vivo, oral, 80 mg; 100-<110 kg; read-out: AUCtau,ss Median

{"Compound": "CC(C)c1cc(Oc2c(Cl)cc(-n3nc(C#N)c(=O)[nH]c3=O)cc2Cl)n[nH]c1=O [Resmetirom]", "AUC": "4400 ng·h/mL"}

====

Test: clinical
Settings: human, in vivo, 80 mg
Assay Endpoint: Cmax (ng/mL)

{"Smiles Str": "CC(C)c1cc(Oc2c(Cl)cc(-n3nc(C#N)c(=O)[nH]c3=O)cc2Cl)n[nH]c1=O", "Value Unit": "ng/mL", "Meas Value": 778}

====

Test: Resmetirom exposure parameters by dose, quartile and body weight
Format: in vivo, human
Details: human, in vivo, oral, 100 mg; 100-<110 kg; read-out: Cmax,ss Median

{"Compound": "CC(C)c1cc(Oc2c(Cl)cc(-n3nc(C#N)c(=O)[nH]c3=O)cc2Cl)n[nH]c1=O [Resmetirom]", "Value Unit": "ng/mL", "Cmax": 966}

====

Test: Resmetirom exposure parameters by dose, quartile and body weight
Type: in vivo, human
Conditions: human, in vivo, oral, 100 mg; <80 kg; read-out: AUCtau,ss Median
Procedure: Various body weight cutoffs for dosing were evaluated.

{"Smiles Str": "CC(C)c1cc(Oc2c(Cl)cc(-n3nc(C#N)c(=O)[nH]c3=O)cc2Cl)n[nH]c1=O", "AUC": "9610 ng·h/mL"}

====

Assay: Resmetirom exposure parameters by dose, quartile and body weight
Type: in vivo, human
Conditions: human, in vivo, oral, 80 mg; 100-<110 kg; read-out: Cmax,ss Mean
Assay Endpoint: Cmax (ng/mL)

{"Smiles Str": "CC(C)c1cc(Oc2c(Cl)cc(-n3nc(C#N)c(=O)[nH]c3=O)cc2Cl)n[nH]c1=O", "Assay Endpoint": "Cmax", "Meas Value": 654}

====

Test: Resmetirom exposure parameters by dose, quartile and body weight
Assay type: in vivo, human
Details: human, in vivo, oral, 100 mg; 100-<110 kg; read-out: AUCtau,ss Geometric Mean
Assay Endpoint: AUC (ng·h/mL)

{"Compound": "CC(C)c1cc(Oc2c(Cl)cc(-n3nc(C#N)c(=O)[nH]c3=O)cc2Cl)n[nH]c1=O [Resmetirom]", "Assay Endpoint": "AUC", "Value Unit": "ng·h/mL", "Meas Value": 6690}

====

Assay: Resmetirom exposure parameters by dose, quartile and body weight
Format: in vivo, human
Settings: human, in vivo, oral, 100 mg; 80-<90 kg; read-out: AUCtau,ss Geometric Mean
Assay Endpoint: AUC

{"Compound": "CC(C)c1cc(Oc2c(Cl)cc(-n3nc(C#N)c(=O)[nH]c3=O)cc2Cl)n[nH]c1=O [Resmetirom]", "Meas Value": "8550 ng·h/mL"}

====

Experiment: Resmetirom exposure parameters by dose, quartile and body weight
Type: in vivo, human
Details: human, in vivo, oral, 100 mg; <80 kg; read-out: AUCtau,ss Mean

{"Compound": "CC(C)c1cc(Oc2c(Cl)cc(-n3nc(C#N)c(=O)[nH]c3=O)cc2Cl)n[nH]c1=O [Resmetirom]", "AUC": "10800 ng·h/mL"}

====

Test: Resmetirom exposure parameters by dose, quartile and body weight
Assay type: in vivo, human
Conditions: human, in vivo, oral, 80 mg; <80 kg; read-out: AUCtau,ss Median
Assay Endpoint: AUC (ng·h/mL)

{"Molecule": "CC(C)c1cc(Oc2c(Cl)cc(-n3nc(C#N)c(=O)[nH]c3=O)cc2Cl)n[nH]c1=O [Resmetirom]", "Meas Value": 8180}

====

Assay: Resmetirom exposure parameters by dose, quartile and body weight
Type: in vivo, human
Conditions: human, in vivo, oral, 80 mg; ≥110 kg; read-out: Cmax,ss Median
Assay Endpoint: Cmax (ng/mL)

{"Smiles Str": "CC(C)c1cc(Oc2c(Cl)cc(-n3nc(C#N)c(=O)[nH]c3=O)cc2Cl)n[nH]c1=O", "Meas Value": 504}

====

Assay: clinical
Conditions: human, in vivo, 100 mg

{"Compound": "CC(C)c1cc(Oc2c(Cl)cc(-n3nc(C#N)c(=O)[nH]c3=O)cc2Cl)n[nH]c1=O [Resmetirom]", "AUC": "7780 ng·h/mL"}

====

Assay: Resmetirom exposure parameters by dose, quartile and body weight
Assay type: in vivo, human
Conditions: human, in vivo, oral, 100 mg; 90-<100 kg; read-out: Cmax,ss Geometric Mean

{"Compound": "CC(C)c1cc(Oc2c(Cl)cc(-n3nc(C#N)c(=O)[nH]c3=O)cc2Cl)n[nH]c1=O [Resmetirom]", "Cmax": "954 ng/mL"}

====

Experiment: Resmetirom exposure parameters by dose, quartile and body weight
Format: in vivo, human
Conditions: human, in vivo, oral, 100 mg; 100-<110 kg; read-out: AUCtau,ss Median
Assay Endpoint: AUC (ng·h/mL)

{"Smiles Str": "CC(C)c1cc(Oc2c(Cl)cc(-n3nc(C#N)c(=O)[nH]c3=O)cc2Cl)n[nH]c1=O", "Assay Endpoint": "AUC", "Value Unit": "ng·h/mL", "Meas Value": 6250}

====

Assay: Resmetirom exposure parameters by dose, quartile and body weight
Format: in vivo, human
Details: human, in vivo, oral, 100 mg; 90-<100 kg; read-out: AUCtau,ss Geometric Mean

{"Compound": "CC(C)c1cc(Oc2c(Cl)cc(-n3nc(C#N)c(=O)[nH]c3=O)cc2Cl)n[nH]c1=O [Resmetirom]", "AUC": "7990 ng·h/mL"}

====

Test: Resmetirom exposure parameters by dose, quartile and body weight
Assay type: in vivo, human
Details: human, in vivo, oral, 80 mg; ≥110 kg; read-out: AUCtau,ss Mean

{"Smiles Str": "CC(C)c1cc(Oc2c(Cl)cc(-n3nc(C#N)c(=O)[nH]c3=O)cc2Cl)n[nH]c1=O", "AUC, µg·h/mL": 3.75}

====

Experiment: Resmetirom exposure parameters by dose, quartile and body weight
Assay type: in vivo, human
Details: human, in vivo, oral, 80 mg; 90-<100 kg; read-out: AUCtau,ss Mean

{"Molecule": "CC(C)c1cc(Oc2c(Cl)cc(-n3nc(C#N)c(=O)[nH]c3=O)cc2Cl)n[nH]c1=O [Resmetirom]", "AUC / ng·h/mL": 5790}

====

Experiment: Resmetirom exposure parameters by dose, quartile and body weight
Type: in vivo, human
Settings: human, in vivo, oral, 80 mg; 90-<100 kg; read-out: AUCtau,ss Geometric Mean

{"Smiles Str": "CC(C)c1cc(Oc2c(Cl)cc(-n3nc(C#N)c(=O)[nH]c3=O)cc2Cl)n[nH]c1=O", "AUC (ng·h/mL)": 5060}

====

Assay: Resmetirom exposure parameters by dose, quartile and body weight
Format: in vivo, human
Settings: human, in vivo, oral, 80 mg; ≥110 kg; read-out: AUCtau,ss Median
Assay Endpoint: AUC (ng·h/mL)

{"Smiles Str": "CC(C)c1cc(Oc2c(Cl)cc(-n3nc(C#N)c(=O)[nH]c3=O)cc2Cl)n[nH]c1=O", "Meas Value": 3550}
